Target: T1, naked peptide MADDYGSEST (human)
T1 peptide: MADDYGSEST
Test: ELISA naked peptide; scFv 1 ug/mL; repII
Property label: OD450 (OD)
State the answer as a number, implicitly in OD.

Take a look at these entries with their results.
CCR9_HUM2 scFv (humanized anti-CCR9 scFv, SEQ ID NO: 17 with C-terminal 6xHis tag) (scFv) scFv: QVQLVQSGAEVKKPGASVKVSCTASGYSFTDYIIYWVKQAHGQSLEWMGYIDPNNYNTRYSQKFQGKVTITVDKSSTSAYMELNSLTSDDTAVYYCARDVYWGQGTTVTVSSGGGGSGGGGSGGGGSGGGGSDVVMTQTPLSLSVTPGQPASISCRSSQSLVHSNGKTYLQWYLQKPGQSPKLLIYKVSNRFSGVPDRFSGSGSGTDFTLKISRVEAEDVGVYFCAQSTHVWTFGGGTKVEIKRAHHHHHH ... 0.03
Comparative antibody 1 (Comp-1) scFv, SEQ ID NO: 10 from WO2023/037125 A1, His-tagged (scFv) scFv: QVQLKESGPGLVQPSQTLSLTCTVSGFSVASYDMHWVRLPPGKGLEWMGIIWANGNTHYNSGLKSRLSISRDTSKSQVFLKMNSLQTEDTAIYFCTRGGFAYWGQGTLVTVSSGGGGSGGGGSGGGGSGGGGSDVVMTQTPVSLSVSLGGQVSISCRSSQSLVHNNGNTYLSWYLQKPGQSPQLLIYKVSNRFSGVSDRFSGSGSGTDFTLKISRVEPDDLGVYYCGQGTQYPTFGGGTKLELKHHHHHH ... 0.02
Comparative antibody 2 (Comp-2) scFv, 243LO326 (VH SEQ ID NO: 51 and VL SEQ ID NO: 52 of WO 2022/195028 A2), His-tagged (scFv) scFv: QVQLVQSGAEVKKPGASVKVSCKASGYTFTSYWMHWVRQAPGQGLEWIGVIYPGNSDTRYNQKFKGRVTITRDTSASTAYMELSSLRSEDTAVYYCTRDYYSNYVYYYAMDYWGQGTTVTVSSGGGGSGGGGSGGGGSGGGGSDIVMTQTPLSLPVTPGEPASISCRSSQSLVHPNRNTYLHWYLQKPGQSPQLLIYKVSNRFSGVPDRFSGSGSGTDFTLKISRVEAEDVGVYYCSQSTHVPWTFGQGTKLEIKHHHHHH ... 0.02

Consider the additional binder presented here.
Prompt: I'd like to know its OD450. The binder in question is Comparative antibody 3 (Comp-3) scFv, SR_92R (Somovilla-Crespo et al. 2018), His-tagged (scFv) scFv: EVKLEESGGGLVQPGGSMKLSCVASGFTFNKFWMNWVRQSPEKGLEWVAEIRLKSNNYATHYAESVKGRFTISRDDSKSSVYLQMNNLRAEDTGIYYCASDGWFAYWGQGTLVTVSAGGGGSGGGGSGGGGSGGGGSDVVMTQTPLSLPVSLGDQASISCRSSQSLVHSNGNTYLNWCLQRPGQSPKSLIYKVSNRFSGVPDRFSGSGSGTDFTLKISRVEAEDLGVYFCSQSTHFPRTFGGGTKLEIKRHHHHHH
Completion: 0.04
